Where these numbers come from: PubChem BioAssay AID743267

system: human bronchial epithelial cells, CFTR corrector, plate reader; assay: rescue of ΔF508 CFTR function, airway epithelium – human bronchial epithelial cells, plate reader, cherry-pick, two tests, dose response (AID 743267); settings: measured here: test 2 replicate run
Hi! Could you tag entries with AC50 below 7 µM as t, and those at or above as f? Much appreciated.

Past entries and their recorded results:
{"columns": ["MOLECULE", "GROUP_LABEL"],
 "data": [
  ["CCN[C@H]1CN(CCCOC)S(=O)(=O)c2sc(S(N)(=O)=O)cc21", "t"],
  ["COc1ccc(N2CCc3c(C)nc4c(OC)cc(OC)cc4c32)cc1", "f"],
  ["CC(OC(=O)CCCC(=O)Nc1ccc(F)cc1)C(=O)c1ccccc1 (centres undefined)", "f"]
]}

INPUT: Quick check: AC50 of COC(=O)C1=CN(c2ccc(OC)cc2OC)C(N)=C(C#N)C1c1ccccc1F (centres undefined) under 7 µM?
OUTPUT: t

INPUT: Quick check: AC50 of Cc1cnc(NC(=O)c2ccc3c(c2)OCCO3)s1 under 7 µM?
OUTPUT: t

INPUT: Quick check: AC50 of Cc1ccc(OCCNC(=O)c2cccc(S(=O)(=O)NCc3ccccc3)c2)cc1 under 7 µM?
OUTPUT: t

INPUT: Quick check: AC50 of CCCOCCOC(=O)c1[nH]c2c(c1C)C(=O)CC(c1cc(OC)ccc1OC)C2 (centres undefined) under 7 µM?
OUTPUT: t

INPUT: Quick check: AC50 of Clc1ccc2c(c1)-c1ccccc1C1=NCCN12 under 7 µM?
OUTPUT: t

INPUT: Quick check: AC50 of CCCC(=O)Nc1ccc2c(c1)nc(CN1CCN(C(=O)OCC)CC1)n2CC under 7 µM?
OUTPUT: f

INPUT: Quick check: AC50 of Cn1cc(C(=O)OCC2CCN(CCNS(C)(=O)=O)CC2)c2ccccc21 under 7 µM?
OUTPUT: f

INPUT: Quick check: AC50 of CCOc1ccc2[nH]c(C(=O)N/N=C/c3ccc(OC)cc3)cc2c1 under 7 µM?
OUTPUT: f

INPUT: Quick check: AC50 of COc1ccc(OC)c(C2CC(c3ccccc3)=NN2C(=S)Nc2ccccc2)c1 (centres undefined) under 7 µM?
OUTPUT: f

INPUT: Quick check: AC50 of O=C(N/N=C/c1cccs1)c1cc(C2CC2)nc2ccccc12 under 7 µM?
OUTPUT: t

INPUT: Quick check: AC50 of Cc1ccc(/C=N/NC(=O)c2ccc3ccccc3c2)s1 under 7 µM?
OUTPUT: t

INPUT: Quick check: AC50 of COc1cccc2c1C(=O)c1c(O)c3c(c(O)c1C2=O)C[C@@](O)(C(C)=O)C[C@@H]3O[C@H]1C[C@H](N)[C@H](O)[C@H](C)O1 under 7 µM?
OUTPUT: f
